Each recorded value in this set is attributed to paper PMC4266362.

TEST SUMMARY: in vivo rat pharmacokinetics
ASSAY CONDITIONS: male, Sprague-Dawley, plasma, intravenous, 1 mg/kg
REPORTED PROPERTY: half-life

Would you kindly share the measured half-life for CC(C)N1CCC[C@H]1CNC(=O)c1cn(C2CCCC2)c(=O)c2c1c1ccccc1n2C [(S)-9b] ?
~1 h

----------
TEST SUMMARY: in vivo rat brain distribution
ASSAY CONDITIONS: Sprague-Dawley, intraperitoneal, 10 mg/kg
REPORTED PROPERTY: Tmax

Request the reported Tmax associated with CC(C)N1CCC[C@H]1CNC(=O)c1cn(C2CCCC2)c(=O)c2c1c1ccccc1n2C [(S)-9b]
30 min

----------
TEST SUMMARY: in vivo rat pharmacokinetics
ASSAY CONDITIONS: male, Sprague-Dawley, plasma
REPORTED PROPERTY: clearance (mL/min/kg)
The reply should contain only the number, in mL/min/kg.

// lookup clearance for CCN1CCC[C@H]1CNC(=O)c1cn(C2CCCC2)c(=O)c2c1c1ccccc1n2C [(S)-8]
92
